Each recorded value in this set is attributed to patent US20240150377A1.

Entries annotated with measured Emax
biological target: CFTR (Homo sapiens, UniProt P13569, DEL508-508); construct: endogenous in cells; host or cells: primary human bronchial epithelial cells from CF subjects (F508del/MF-HBE), differentiated at air-liquid interface; test: HBE assay: Ussing chamber assay of CFTR-mediated short-circuit currents; type: cell-based; conditions: Table 13; read-out: HBE Max Activity (%)
Sequence (P13569 with tags, fused parts or gaps DEL508-508): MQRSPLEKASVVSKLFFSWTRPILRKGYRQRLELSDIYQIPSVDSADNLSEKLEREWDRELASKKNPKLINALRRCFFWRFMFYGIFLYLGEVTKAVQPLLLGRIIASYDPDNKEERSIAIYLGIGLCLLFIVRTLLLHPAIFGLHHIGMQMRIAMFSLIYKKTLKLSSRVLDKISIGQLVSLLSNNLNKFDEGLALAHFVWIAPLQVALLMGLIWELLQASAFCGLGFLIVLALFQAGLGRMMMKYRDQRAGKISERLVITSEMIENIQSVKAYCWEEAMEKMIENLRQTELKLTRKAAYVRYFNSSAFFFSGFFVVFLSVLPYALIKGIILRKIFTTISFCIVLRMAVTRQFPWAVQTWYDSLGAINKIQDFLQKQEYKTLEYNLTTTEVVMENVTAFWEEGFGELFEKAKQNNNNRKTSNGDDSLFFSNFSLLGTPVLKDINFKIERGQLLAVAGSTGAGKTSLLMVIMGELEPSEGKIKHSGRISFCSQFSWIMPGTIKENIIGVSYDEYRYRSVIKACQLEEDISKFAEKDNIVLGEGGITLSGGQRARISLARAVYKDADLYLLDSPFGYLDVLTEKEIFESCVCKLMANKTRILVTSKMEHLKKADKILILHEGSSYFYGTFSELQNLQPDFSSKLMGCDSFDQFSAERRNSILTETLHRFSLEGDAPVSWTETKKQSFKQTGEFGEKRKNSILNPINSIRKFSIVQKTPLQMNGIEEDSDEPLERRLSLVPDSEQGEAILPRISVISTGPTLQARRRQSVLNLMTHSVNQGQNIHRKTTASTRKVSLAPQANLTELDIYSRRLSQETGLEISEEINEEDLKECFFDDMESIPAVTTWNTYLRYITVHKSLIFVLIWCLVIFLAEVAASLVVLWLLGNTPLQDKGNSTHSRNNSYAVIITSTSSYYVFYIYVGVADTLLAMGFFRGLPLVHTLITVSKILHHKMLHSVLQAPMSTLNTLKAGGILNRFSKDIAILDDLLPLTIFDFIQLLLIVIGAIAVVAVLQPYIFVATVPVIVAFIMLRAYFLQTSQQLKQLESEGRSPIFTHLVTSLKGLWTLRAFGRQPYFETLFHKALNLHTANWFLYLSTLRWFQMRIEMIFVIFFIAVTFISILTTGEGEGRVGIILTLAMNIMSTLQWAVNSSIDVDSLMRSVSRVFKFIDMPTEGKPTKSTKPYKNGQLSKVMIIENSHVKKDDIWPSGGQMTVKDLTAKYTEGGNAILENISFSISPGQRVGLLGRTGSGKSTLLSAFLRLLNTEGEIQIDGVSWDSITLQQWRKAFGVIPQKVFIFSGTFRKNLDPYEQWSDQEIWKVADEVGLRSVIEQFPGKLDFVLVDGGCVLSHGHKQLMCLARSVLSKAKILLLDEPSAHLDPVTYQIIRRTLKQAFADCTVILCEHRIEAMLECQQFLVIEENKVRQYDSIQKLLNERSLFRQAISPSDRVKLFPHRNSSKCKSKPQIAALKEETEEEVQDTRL

| compound | tgt | Emax |
| --- | --- | --- |
| Cc1cccc(C)c1-c1cc2nc(n1)NS(=O)(=O)c1cccc(n1)C(=O)N(Cc1cccc(N(C)C3CC4(CC4)C3)n1)[C@H](CC(C)(C)C)CO2 [Compound 1143] | CFTR (Homo sapiens, UniProt P13569, DEL508-508) | > 60% |

Consider Cc1cccc(C)c1-c1cc2nc(n1)NS(=O)(=O)c1cccc(c1)C(=O)N(Cc1ncc(N3CCCC3(C)C)cn1)[C@H](CC(C)(C)C)CO2 [Compound 537] . Its measured Emax is > 60%

Emax for Cc1cccc(C)c1-c1cc2nc(n1)NS(=O)(=O)c1cccc(n1)C(=O)N(Cc1ccc(N(C)CC(C)(C)C)cn1)[C@H](CC(C)(C)C)CO2 [Compound 1125] is > 60%
